These data points were gathered from ChEMBL document CHEMBL1806384.

# measurementDescription: Cytotoxicity against human CWR22 cells
# Assay type: functional, cell-based
experimentalEndpoint: IC50 (µM)
Just the number in µM, nothing appended.

molecularString | IC50 [µM]
COc1ccc(C(=O)c2coc3c(Cl)c(Cl)c(O)cc23)cc1OC | 100
COc1ccc(C(=O)c2coc3ccc(O)c(Br)c23)cc1 | 100
COc1ccc(C(=O)c2coc3c2C(=O)C(=O)C=C3Br)cc1 | 46

State the recorded IC50 for this entry: "COc1ccc(C(=O)c2coc3c(Br)c(Br)c(O)cc23)cc1" 100

Same thing, different compound: "COc1ccc(C(=O)c2coc3c(Br)cc(O)cc23)cc1" 100

Same thing, different compound: "COc1cc(C(=O)c2coc3c(Cl)c(Cl)c(O)cc23)cc(OC)c1OC" 100

Same thing, different compound: "COc1cc(C(=O)c2coc3c(Br)c(Br)c(O)cc23)cc(OC)c1OC" 100

Same thing, different compound: "COc1ccc(C(=O)c2coc3c2C(=O)C(=O)C=C3Cl)cc1" 59

----------
Listing of recorded inhibition by entry.
# system: Peptide deformylase (Escherichia coli) (UniProt Q9JN24)
# Sequence (Q9JN24 as listed by the source): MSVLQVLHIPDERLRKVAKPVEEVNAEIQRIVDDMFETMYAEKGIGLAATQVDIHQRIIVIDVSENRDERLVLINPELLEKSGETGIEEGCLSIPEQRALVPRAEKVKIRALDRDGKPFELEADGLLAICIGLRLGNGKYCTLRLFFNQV
# measurementDescription: Inhibition of Escherichia coli peptide deformylase at 100 uM after 1 hr by fluorescence polarization based competition assay
Just the number in %, nothing appended.

molecularString | assayValue
COc1cc(C(=O)c2coc3c2C(=O)C(=O)C(Cl)=C3Cl)cc(OC)c1OC | 27
COc1ccc(C(=O)c2coc3c2C(=O)C(=O)C(Cl)=C3)cc1 | 11
COc1ccc(C(=O)c2coc3c2C(=O)C(=O)C=C3Br)cc1 | 26

State the recorded inhibition for this entry: "COc1ccc(C(=O)c2coc3c(Cl)c(Cl)c(O)cc23)cc1OC" 0

Same thing, different compound: "COc1ccc(C(=O)c2coc3cc(Br)c(O)cc23)cc1" 0

Same thing, different compound: "COc1ccc(C(=O)c2coc3c2C(=O)C(=O)C=C3)cc1" 24

----------
# system: Peptide deformylase (Escherichia coli)
# measurementDescription: Inhibition of Escherichia coli peptide deformylase at 100 uM after 1 hr by fluorescence polarization based competition assay
experimentalEndpoint: inhibition (%)
Just the number in %, nothing appended.

Worked cases, answers included:
molecularString | units | assayValue
COc1cc(C(=O)c2coc3c2C(=O)C(=O)c2ccccc2-3)cc(OC)c1OC | % | 7
COc1ccc(C(=O)c2coc3c(Br)cc(O)c(Br)c23)cc1 | % | 0
COc1ccc(C(=O)c2coc3c2C(=O)C(=O)c2ccccc2-3)cc1OC | % | 0
O=C(c1ccccc1)c1coc2ccc(O)cc12 | % | 7

Now for another entry.
State the recorded inhibition for this entry: "COc1ccc(C(=O)c2coc3c2C(=O)C(=O)C(Br)=C3Br)cc1" 22

----------
Listing of recorded inhibition by entry.
# system: UniProtKB Q9HBH1
# Sequence (whole entry): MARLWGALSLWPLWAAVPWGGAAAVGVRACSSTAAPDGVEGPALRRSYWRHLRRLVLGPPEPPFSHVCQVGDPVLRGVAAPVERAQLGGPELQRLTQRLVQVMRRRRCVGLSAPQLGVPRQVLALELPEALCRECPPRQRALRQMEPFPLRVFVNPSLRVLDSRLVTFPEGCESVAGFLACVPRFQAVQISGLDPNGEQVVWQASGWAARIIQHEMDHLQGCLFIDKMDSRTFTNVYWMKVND
# measurementDescription: Inhibition of human peptide deformylase at 100 uM after 1 hr by fluorescence polarization based competition assay
Just the number in %, nothing appended.

State the recorded inhibition for this entry: "COc1ccc(C(=O)c2coc3ccc(O)cc23)cc1" 0
